protocol-summary: Viability qHTS for spleen associated tyrosine kinase inhibitor (SYKi) drug resistant MV4-11 cells (AID 1963824); also: nearly all actives have a fitted effect of over 35% in size
conditions-used: SYKi-resistant MV4-11 viability, CellTiter-Glo, 72 h; series mostly up to 45 µM
Inconclusive results are not listed. Calls of active or inactive are those of the source. Calls follow the shape of the dose curve; as a rule, active = well fitted cell-killing curve with a large enough effect; inconclusive = small, poorly fitted or top-dose-only effect, or effect the other way; inactive = no such curve, though single readings can be large or run the other way.
Tick one outcome: active, inactive

Examples with answers:
COC(=O)CC(C)(O)CC(=O)OCc1ccc(O[C@@H]2O[C@H](CO)[C@@H](O)[C@H](O)[C@H]2O)cc1 (stereo partly specified); inactive
NCCc1cnc[nH]1; inactive
COc1cccc2c1C(=O)c1c(O)c3c(c(O)c1C2=O)C[C@@](O)(C(=O)CO)C[C@@H]3O[C@H]1C[C@H](N)[C@H](O[C@@H]2CCCCO2)[C@H](C)O1; active
NS(=O)(=O)c1ccc(C(=O)O)cc1; inactive
Fc1ccc(N2CCCCC2)c(NC(=S)c2ccncc2)c1; active

Consider now this further compound.
Exercise: Assay result, entry CN1CC[C@@H](c2c(O)cc(O)c3c(=O)cc(-c4ccc(C(F)(F)F)cc4Cl)oc23)[C@@H]1CO — outcome?
Solution: active

----------
protocol-summary: Viability qHTS for spleen associated tyrosine kinase inhibitor (SYKi) naive MV4-11 cells (AID 1963823); also: nearly all actives have a fitted effect of over 40% in size; also: potency is read from the fitted curve at half-maximal effect
conditions-used: MV4-11 AML viability, CellTiter-Glo luminescence, 72 h; series mostly up to 45 µM
Records with an inconclusive call do not appear. The source made the active and inactive calls. Calls follow the shape of the dose curve; as a rule, active = well fitted cell-killing curve with a large enough effect; inconclusive = small, poorly fitted or top-dose-only effect, or effect the other way; inactive = no such curve, though single readings can be large or run the other way.
endpoint-name: Potency

CC1=C(C(=O)O)/C(=C\CO[C@@H]2O[C@H](CO)[C@@H](O)[C@H](O)[C@H]2O)C(OC(=O)/C=C/c2ccc(O)cc2)C1 (some centres undefined); inactive
COc1ccc(C2Sc3ccccc3N(CCN(C)C)C(=O)C2OC(C)=O)cc1 (centres undefined); inactive
CC1(C)CCC2(CC1)N[C@@H](C(=O)N[C@@H]1CC[C@@H](C(N)=O)OC1)[C@H](c1ccnc(Cl)c1F)[C@]21C(=O)Nc2cc(Cl)ccc21; 16 µM (active)
CC(C)(C)c1ccc(O)c(O)c1; 9.69 µM (active)
Cc1[nH]c2ccccc2c1CCNCc1ccc(/C=C/C(=O)NO)cc1; 0.0295 µM (active)

Lab note: next compound to report on.
Consider CCC1(c2cnc[nH]2)Cc2ccccc2C1 . Its measured Potency is inactive

----------
protocol-summary: Quantitative highthroughput screen to assess conditional lethalithy of SEM cells grown in RPMI1640 with dialyzed fetal bovine serum (RPMI+ds) (AID 1963884); also: nearly all actives have a fitted effect of over 35% in size;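 as to viability: 100% = DMSO control wells and 0% = empty wells without cells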
conditions-used: SEM B-ALL cells, RPMI+dialyzed FBS, CellTiter-Glo viability, 48 h; series mostly up to 45.8 µM
Results filed as inconclusive are left out. The source made the active and inactive calls. Calls follow the shape of the dose curve; as a rule, active = well fitted cell-killing curve with a large enough effect; inconclusive = small, poorly fitted or top-dose-only effect, or effect the other way; inactive = no such curve, though single readings can be large or run the other way.
Tick one outcome: active, inactive

OC(CN1CCN(c2cccc(Cl)c2)CC1)C(c1ccccc1)c1ccccc1 (centres undefined); active
C[C@@H]1CCN(C(=O)CC#N)C[C@H]1N(C)c1ncnc2[nH]ccc12; inactive
CCCc1nc2c(C)cc(-c3nc4ccccc4n3C)cc2n1Cc1ccc(-c2ccccc2C(=O)O)cc1; inactive
Cc1cc(NC(=O)Nc2ccc(N(C)C)cc2)c2cc(F)cc(F)c2n1; inactive
CC1(O)CC(c2nc(-c3ccc4ccc(-c5ccccc5)nc4c3)c3c(N)nccn23)C1 (centres undefined); active

Exercise: Assay result, entry C=CC(=O)Nc1ccc2ncnc(Nc3ccc(OCc4cccc(F)c4)c(Cl)c3)c2c1 — outcome?
Solution: active

Exercise: Assay result, entry COC(=O)N[C@H](C(=O)N[C@@H](Cc1ccccc1)[C@@H](O)CN(Cc1ccc(-c2ccccn2)cc1)NC(=O)[C@@H](NC(=O)OC)C(C)(C)C)C(C)(C)C — outcome?
Solution: inactive

Exercise: Assay result, entry O=c1[nH]c(=O)n([C@H]2C[C@@H](O)[C@@H](CO)O2)cc1C(F)(F)F — outcome?
Solution: active

Exercise: Assay result, entry CCN(CC)CCOc1ccc(C(=C(Cl)c2ccccc2)c2ccccc2)cc1 — outcome?
Solution: inactive

----------
protocol-summary: Quantitative highthroughput screen to assess conditional lethalithy of SEM cells grown in Human Plasma-Like Medium with dialyzed fetal bovine serum (HPLM+ds) (AID 1963882); also: nearly all actives have a fitted effect of over 35% in size
conditions-used: SEM B-ALL cells in HPLM+ds, CellTiter-Glo viability, 48 h; series mostly up to 45.8 µM
Inconclusive results are not listed. Active and inactive are the calls of the source. Calls follow the shape of the dose curve; as a rule, active = well fitted cell-killing curve with a large enough effect; inconclusive = small, poorly fitted or top-dose-only effect, or effect the other way; inactive = no such curve, though single readings can be large or run the other way.
Tick one outcome: active, inactive

COc1cc(OC)c(C(=O)CCCN2CCCC2)c(OC)c1; inactive
CN(C)c1cc(NC(=O)CNC(C)(C)C)c(O)c2c1C[C@@H]1C[C@H]3[C@H](N(C)C)C(=O)C(C(N)=O)=C(O)[C@@]3(O)C(=O)C1=C2O; inactive

Exercise: Assay result, entry CN(C)c1nc(Cc2ccc(NC(=O)c3ccc4ccccc4c3)cc2)nc(Cl)c1CC(=O)O — outcome?
Solution: inactive

Exercise: Assay result, entry CN1CCC(=C2c3ccccc3CC(=O)c3sccc32)CC1 — outcome?
Solution: inactive

Exercise: Assay result, entry CCc1cc(C(C)=NOCc2ccc(C3CCCCC3)c(C(F)(F)F)c2)ccc1CN1CC(C(=O)O)C1 — outcome?
Solution: active

Exercise: Assay result, entry CN1CCN(c2c(F)cc3c(=O)c(C(=O)O)cn(CCF)c3c2F)CC1 — outcome?
Solution: inactive

Exercise: Assay result, entry CCOC(=O)c1c(C)n(C)c2ccc(O)cc12 — outcome?
Solution: inactive

----------
protocol-summary: Quantitative highthroughput screen to assess conditional lethalithy of NOMO1 cells grown in RPMI1640 with untreated serum (RPMI+s) (AID 1963876); also: nearly all actives have a fitted effect of over 35% in size;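 as to viability: 100% = DMSO wells and 0% = empty wells without cells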
conditions-used: NOMO1 AML cells in RPMI+serum, CellTiter-Glo viability, 48 h; series mostly up to 45.8 µM
Records with an inconclusive call do not appear. Active and inactive are the calls of the source. Calls come from the whole dose curve; as a rule, active = well fitted cell-killing curve with a large enough effect; inconclusive = small, poorly fitted or top-dose-only effect; inactive = flat fitted curve, though single readings scatter.
Tick one outcome: active, inactive

Examples with answers:
Nc1ccc(C(=O)Nc2cccc(-c3nc(N4CCOCC4)c4oc5ncccc5c4n3)c2)cn1; inactive
C=CC(=O)Nc1cccc(Oc2nc(Nc3ccc(N4CCN(C)CC4)cc3OC)ncc2Cl)c1; inactive
CC[C@@H]1C(=O)N(C)c2cnc(Nc3ccc(C(=O)NC4CCN(C)CC4)cc3OC)nc2N1C1CCCC1; active

Consider now this further molecule.
Exercise: Assay result, entry CN[C@H](CC(C)C)C(=O)N[C@H]1C(=O)N[C@@H](CC(N)=O)C(=O)N[C@@H]2C(=O)N[C@H]3C(=O)N[C@H](C(=O)N[C@H](C(=O)O)c4cc(O)cc(O)c4-c4cc3ccc4O)[C@H](O)c3ccc(c(Cl)c3)Oc3cc2cc(c3O[C@@H]2O[C@H](CO)[C@@H](O)[C@H](O)[C@@H]2O[C@H]2C[C@](C)(N)[C@H](O)[C@H](C)O2)Oc2ccc(cc2Cl)[C@H]1O — outcome?
Solution: inactive

----------
protocol-summary: Quantitative highthroughput screen to assess conditional lethalithy of SEM cells grown in RPMI1640 with unreated serum (RPMI+s) (AID 1963883); also: nearly all actives have a fitted effect of over 35% in size;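 as to viability: 100% = DMSO wells and 0% = empty wells without cells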
conditions-used: SEM B-ALL cells, CellTiter-Glo viability, 48 h; series mostly up to 45.8 µM
Inconclusive results are not listed. Activity calls are given as the source filed them. The call rests on the fitted dose curve; in most records, active means well fitted cell-killing curve with a large enough effect; inconclusive means small, poorly fitted or top-dose-only effect, or effect the other way; inactive means no such curve, though single readings can be large or run the other way.
Tick one outcome: active, inactive

CCCCCCCCCCCCCCCCCCCCCCO; inactive
COc1ccc2cc3[n+](cc2c1OC)CCc1cc2c(cc1-3)OCO2; active
O=S(=O)(O)CCSSCCS(=O)(=O)O; inactive

Exercise: Assay result, entry Clc1ccc2c(c1)C(N1CCNCC1)=Nc1ccccc1O2 — outcome?
Solution: inactive

Exercise: Assay result, entry CC(C)c1ccc(Cn2ccc3c4c(N)nc(NC5CC5)nc4ccc32)cc1 — outcome?
Solution: active

Exercise: Assay result, entry CCCCCCCCCCCCc1ccc(S(=O)(=O)Nc2nncs2)cc1 — outcome?
Solution: active

Exercise: Assay result, entry CCN(CC)CCn1c(=O)c(Cc2ccc(OC)cc2)nc2ccccc21 — outcome?
Solution: inactive

Exercise: Assay result, entry CC(C)(C)C(=O)Oc1ccc2c(c1)nc(NC(=O)c1cccc([N+](=O)[O-])c1)n2CCCO — outcome?
Solution: inactive

----------
protocol-summary: Viability qHTS for spleen associated tyrosine kinase inhibitor (SYKi) drug resistant MV4-11 cells (AID 1963824); also: nearly all actives have a fitted effect of over 35% in size
conditions-used: SYKi-resistant MV4-11 viability, CellTiter-Glo, 72 h; series mostly up to 45 µM
Results filed as inconclusive are left out. Calls of active or inactive are those of the source. Calls come from the whole dose curve; as a rule, active = well fitted cell-killing curve with a large enough effect; inconclusive = small, poorly fitted or top-dose-only effect, or effect the other way; inactive = no such curve, though single readings can be large or run the other way.
Listing: viability, % of control of selected compounds

Study these solved cases before continuing.
COc1ccc(/C=C/C(=O)O[C@@H]2[C@@H](O[C@@H]3O[C@H](CO)[C@@H](O)[C@H](O)[C@H]3O)[C@@H](O)[C@H](O[C@H]3C4C=CO[C@@H](O[C@@H]5O[C@H](CO)[C@@H](O)[C@H](O)[C@H]5O)C4[C@@]4(CO)O[C@@H]34)O[C@H]2C)cc1 (stereo not given in full); 104% [at 9.25 µM] (inactive)
O=c1[nH]c(=O)c2[nH]c(=O)[nH]c2[nH]1; 120% [at 9.25 µM] (inactive)
CC(=O)O[C@H]1[C@H](O[C@H]2[C@@H]3C=CO[C@@H](O[C@@H]4O[C@H](CO)[C@@H](O)[C@H](O)[C@H]4O)[C@@H]3[C@@]3(CO)O[C@@H]23)O[C@@H](C)[C@H](OC(=O)/C=C/c2ccccc2)[C@H]1OC(=O)/C=C/c1ccccc1; 83.3% [at 9.25 µM] (inactive)
C[C@@H]1O[C@@H](O[C@H]2[C@H](O)[C@@H](O)[C@H](OC[C@H]3O[C@@H](OC(=O)[C@]45CCC(C)(C)C[C@H]4C4=CCC6[C@@]7(C)C[C@@H](O)[C@H](O)[C@@](C)(CO)C7[C@H](O)C[C@@]6(C)[C@]4(C)CC5)[C@H](O)[C@@H](O)[C@@H]3O)O[C@@H]2CO)[C@H](O)[C@H](O)[C@H]1O (stereo not given in full); 79.5% [at 9.25 µM] (inactive)

Consider CC1(C)CC[C@]2(C(=O)OC3OC(CO)C(O)C(O)C3O)CC[C@]3(C)C(=CCC4[C@@]5(C)C[C@@H](O)[C@H](OC6OC(C(=O)O)C(O)C(O)C6O)C(C)(C)C5CC[C@]43C)[C@@H]2C1 (stereo not given in full) . Its measured viability, % of control is 95.5% [at 9.25 µM] (inactive)
